Target: Recombinant human cathepsin S (CatS) (Homo sapiens, UniProt P25774)
Sequence (P25774 115-331): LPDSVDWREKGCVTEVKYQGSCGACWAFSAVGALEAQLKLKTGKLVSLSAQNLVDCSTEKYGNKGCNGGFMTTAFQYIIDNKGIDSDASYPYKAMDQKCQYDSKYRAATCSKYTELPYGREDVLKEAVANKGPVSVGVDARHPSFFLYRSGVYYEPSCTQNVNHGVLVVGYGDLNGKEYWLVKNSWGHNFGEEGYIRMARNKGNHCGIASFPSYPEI
Test: Recombinant human cathepsin S (CatS) inhibition assay, fluorogenic substrate Z-Valine-Valine-Arginine-AMC
Details: CatS IC50
Rule: IC50 below 100 nM gives TRUE. Equal to or above 100 nM gives FALSE.

CS(=O)(=O)N1CCc2c(c(-c3ccc(Cl)c(C#Cc4ccc(Cl)cc4)c3)nn2CCCN2CCOCC2)C1; FALSE
NC(=O)C(=O)N1CCc2c(c(-c3ccc(Cl)c(C#Cc4ccc(CNCc5ccc(Cl)cc5)cc4)c3)nn2C[C@H](O)CN2CCSCC2)C1; TRUE
CC(C)(C)OC(=O)NC1CCN(CCCn2nc(-c3ccc(Cl)c(C#Cc4ccc(CNCc5ccc(Cl)cc5)cc4)c3)c3c2CCN(S(C)(=O)=O)C3)CC1; TRUE
C[C@H]1COCCN1CCCn1nc(-c2ccc(Cl)c(C#Cc3ccc(Cl)c(COCCCO)c3)c2)c2c1CCN(C(=O)C(N)=O)C2; TRUE
CS(=O)(=O)N1CCc2c(c(-c3ccc(Cl)c(C#Cc4cccs4)c3)nn2CCCN2CCOCC2)C1; FALSE

* * *

# IC50 values compiled below
Target: Recombinant human cathepsin S (CatS) (Homo sapiens, UniProt P25774)
Test: Recombinant human cathepsin S (CatS) inhibition assay, fluorogenic substrate Z-Valine-Valine-Arginine-AMC
Conditions: CatS IC50
quantity-measured: IC50 (nM)

C[C@H]1COCCN1CCCn1nc(-c2ccc(Cl)c(C#Cc3ccc4c(c3)CCN(C3CC3)C4)c2)c2c1CCN(S(C)(=O)=O)C2; 220
C[C@H]1COCCN1C[C@H](O)Cn1nc(-c2ccc(Cl)c(C#Cc3ccc(CNCc4ccc(Cl)cc4)cc3)c2)c2c1CCN(C(=O)C(N)=O)C2; 70
NC(=O)N1CCc2c(c(-c3ccc(Cl)c(C#Cc4ccc(C(=O)NCCN5CCOCC5)cc4)c3)nn2CCCN2CCSCC2)C1; 50

* * *

# pIC50 values compiled below
Target: Recombinant human cathepsin S (CatS) (Homo sapiens, UniProt P25774)
Assay: Recombinant human cathepsin S (CatS) inhibition assay, fluorogenic substrate Z-Valine-Valine-Arginine-AMC;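 further: Baculovirus-expressed CatS in pH 5.0 sodium acetate buffer with DTT and NaCl, fluorescence read each minute over 20 min, inhibition derived from rate slope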
pIC50: −log10 of the molar value.
quantity-measured: pIC50

NC(=O)N1CCc2c(c(-c3ccc(Cl)c(C#Cc4ccc(CNCc5ccc(Cl)cc5)cc4)c3)nn2CCCN2CCOCC2)C1 [Example 151]; 7.05
CC(C)(C)OC(=O)N1CCC(C2CCN(C[C@H](O)Cn3nc(-c4ccc(Cl)c(C#Cc5ccc(Cl)cc5)c4)c4c3CCN(C(N)=O)C4)CC2)CC1 [Example 237]; 8.00
CS(=O)(=O)N1CCc2c(c(-c3ccc(Cl)c(C#CCN)c3)nn2CCCN2CCC(N3CCCC3=O)CC2)C1 [Example 307]; 5.33

* * *

Molecular target: Recombinant human cathepsin S (CatS) (Homo sapiens)
Assay: Recombinant human cathepsin S (CatS) inhibition assay, fluorogenic substrate Z-Valine-Valine-Arginine-AMC
pIC50: −log10 of the molar value.
Binary classification by pIC50, with 7 as an inclusive lower bound for Met; all other cases are Not met.

CS(=O)(=O)N1CCc2c(c(-c3ccc(Cl)c(C#Cc4ccc(CNCc5ccc(Cl)cc5)cc4)c3)nn2CCCN2CCN(c3ccccn3)CC2)C1; Met
CC(C)CC#Cc1cc(-c2nn(C[C@@H](O)CN3CCC(C4CCN(C(=O)OC(C)(C)C)CC4)CC3)c3c2CN(S(C)(=O)=O)CC3)ccc1Cl; Not met
COC(=O)C1Cc2cc(C#Cc3cc(-c4nn(CCCN5CCOCC5)c5c4CN(S(C)(=O)=O)CC5)ccc3Cl)ccc2CN1 (stereo not shown); Not met
CS(=O)(=O)N1CCc2c(c(-c3ccc(Cl)c(C#CCCCc4ccccc4)c3)nn2CCCN2CCOCC2)C1; Not met
C[C@H]1COCCN1CCCn1nc(-c2ccc(Cl)c(C#Cc3ccc(Cl)c(CNC[C@H]4CCCO4)c3)c2)c2c1CCN(C(=O)C(N)=O)C2; Met
NC(=O)N1CCc2c(c(-c3ccc(Cl)c(C#Cc4ccc(CN5CCC(N6CCCC6=O)CC5)cc4)c3)nn2CCCN2CCSCC2)C1; Not met
CC(C)(C)OC(=O)NCc1cccc(C#Cc2cc(-c3nn(CCCN4CCOCC4)c4c3CN(S(C)(=O)=O)CC4)ccc2Cl)c1; Not met
COC(=O)CNCc1cc(C#Cc2cc(-c3nn(CCCN4CCOCC4C)c4c3CN(C(N)=O)CC4)ccc2Cl)ccc1Cl (stereo in doubt); Met
NC(=O)N1CCc2c(c(-c3ccc(Cl)c(C#Cc4ccc(Cl)c(C(=O)NCCN5CCOCC5)c4)c3)nn2CCCN2CCSCC2)C1; Met
C[C@H]1COCCN1CCCn1nc(-c2ccc(Cl)c(C#Cc3ccc(Cl)c(CNCC(=O)O)c3)c2)c2c1CCNC2; Not met
NC(=O)C(=O)N1CCc2c(c(-c3ccc(Cl)c(C#Cc4ccc(CNCc5ccc(Cl)cc5)cc4)c3)nn2C[C@@H](O)CN2CCSCC2)C1; Met
CS(=O)(=O)N1CCc2c(c(-c3ccc(Cl)c(C#Cc4cccc(CNCc5ccccc5)c4)c3)nn2CCCN2CCOCC2)C1; Not met
CS(=O)(=O)N1CCc2c(c(-c3ccc(Cl)c(C#Cc4ccc(CN[C@H](CO)c5ccccc5)cc4)c3)nn2CCCN2CCN(c3ccccn3)CC2)C1; Met

Every entry's value here was drawn from patent US20080200454A1.
